Experiment: chemical genetic growth profiling, strain panel (AID 1159580);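 note: tested at 20 µM; growth read once vehicle control cultures reached saturation at 30 °C; 1 = growth at the plate median or of vehicle wells; lower values mean less growth of the strain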
Conditions: S. cerevisiae deletion strains, growth OD, locus YGR252W, strain gcn5, active compounds read low
The whole screen tested about 5,500 compounds, of which about 2,000 (36%) were called active. About 18% were inconclusive and are not listed. The list shows a part of the results.
Assay readout: normalized growth

Molecule	Assay readout	Observed
C[C@]12CCC3C(CC[C@H]4C[C@@H](O)CC[C@]34C)C1CC[C@@H]2O (stereo partly drawn)	normalized growth	0.764
CC(=O)O[C@H]1C[C@@H](OC(C)=O)C(C)(C)C2C[C@@H](O)[C@]3(C)C(CC[C@@]4(C)[C@H](c5ccoc5)OC(=O)[C@H]5O[C@]543)[C@]21C (stereo partly drawn)	normalized growth	0.941
CC(=O)C1CC[C@H]2C3CC[C@H]4C[C@H](O)CC[C@]4(C)C3CC[C@]12C (stereo partly drawn)	normalized growth	0.928
O=C(O)C(O)C(O)C(O)C(O)C(=O)O (stereo not drawn)	normalized growth	1.04
Clc1ccc(C(c2ccccc2Cl)C(Cl)Cl)cc1 (stereo not drawn)	normalized growth	0.874
CC(C)(S)[C@@H](N)C(=O)O	normalized growth	1.01
CC(=O)O[C@@H]1CC2C(C)(C)C(=O)C3OC3[C@]2(C)C2CC[C@@]3(C)[C@H](c4ccoc4)OC(=O)C4OC43[C@@]21C (stereo partly drawn)	normalized growth	0.928
CC(=O)O[C@H]1C[C@@H](OC(C)=O)C(C)(C)C2C[C@@H](OC(C)=O)[C@]3(C)C(CC[C@@]4(C)[C@H](c5ccoc5)OC(=O)[C@H]5O[C@]543)[C@]21C (stereo partly drawn)	normalized growth	0.966

* * *

Test: chemical genetic growth profiling, strain panel (AID 1159580);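 note: tested at 20 µM; growth read once vehicle control cultures reached saturation at 30 °C; 1 = growth at the plate median or of vehicle wells; lower values mean less growth of the strain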
Settings: S. cerevisiae deletion strains, growth OD, locus YDL214C, strain PRR2, active compounds read low
Screen size: about 5,500 compounds; about 2,000 (36%) were called active. Roughly 18% stayed inconclusive and do not appear here. This is one part of the list.
Binarize normalized growth at 0.9; below is Satisfied, at or above is Not satisfied.

                                   compound            cat
0             Clc1ccccc1-c1csc(-c2cccnc2)n1      Satisfied
1             Clc1ccccc1-c1csc(-c2ccncc2)n1  Not satisfied
2  COc1ccc(Nc2nc(NC(=O)Nc3ccc(Cl)cc3)n[nH]2)cc1      Satisfied
3  Cc1noc(C)c1S(=O)(=O)Nc1csc(C(F)(F)F)c1-c1ccccc1  Not satisfied
4  Cc1ccc(NC(=S)C(C#N)C(=O)N2CCOCC2)c(C)c1 (stereo not drawn)  Not satisfied

* * *

Assay: chemical genetic growth profiling, strain panel (AID 1159580);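 note: tested at 20 µM; growth read once vehicle control cultures reached saturation at 30 °C; 1 = growth at the plate median or of vehicle wells; lower values mean less growth of the strain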
Conditions: S. cerevisiae deletion strains, growth OD, locus YJL154C, strain vps35, active compounds read low
The whole screen tested about 5,500 compounds, of which about 2,000 (36%) were called active. Roughly 18% stayed inconclusive and do not appear here. Some of the results follow.
Assay readout: normalized growth

                                   compound      assay_readout  observed
0  CC1(C)C(=O)[C@@H]2O[C@@H]2[C@@]2(C)C1C[C@@H](O)[C@]1(C)C2CC[C@@]2(C)[C@H](c3ccoc3)OC(=O)C3OC321 (some centres undefined)  normalized growth     0.999
1  CC(C)=CC1C(C(=O)OCc2cccc(Oc3ccccc3)c2)C1(C)C (centres undefined)  normalized growth      1.01
2  CC(=O)O[C@@H]1CC2C(C)(C)C(=O)C3OC3[C@]2(C)C2CC[C@@]3(C)[C@H](c4ccoc4)OC(=O)C4OC43[C@@]21C (some centres undefined)  normalized growth      0.98
3  C[C@]12CCC3c4ccc(O)cc4CCC3C1CCC2=O (some centres undefined)  normalized growth      1.02
